Tested on: Rattus norvegicus
Assay: Hypoglycemic activity in Wistar rat assessed as change in blood glucose level at 50 mg/kg, ig after 3 hrs (RVb = 1.39 +/- 5.895 %)
Format: functional
Conditions: route intragastric
Here, each record is paired with measured Activity data.
Answer format: numeric, % implied, no suffix.

Below, each entry is followed by its recorded Activity result.
Molecule	Unit	Activity
O=c1c(O)c(-c2ccc(O)c(O)c2)oc2cc(O)cc(O)c12	%	-21.1
O=c1cc(-c2ccccc2)oc2ccccc12	%	-21.56
O=c1c(O)c(-c2ccccc2)oc2ccccc12	%	-20.2
O=c1cc(-c2ccccc2)oc2cc(O)ccc12 [7-HYDROXYFLAVONE]	%	-6.19

Any idea what Activity was measured for O=c1cc(-c2ccccc2)oc2ccc(O)cc12 [6-HYDROXYFLAVONE] ?
6.51

Then what about the molecule COc1ccc(Cl)cc1C(=O)NCCc1ccc(S(=O)(=O)NC(=O)NC2CCCCC2)cc1 [GLYBURIDE] ?
-21.71

Then what about the molecule O=c1cc(-c2ccccc2)oc2cc(O)cc(O)c12 ?
-19.98

###

Tested on: Rattus norvegicus
Experiment: Hypoglycemic activity in Wistar rat assessed as change in blood glucose level at 50 mg/kg, ig after 7 hrs (RVb = -3.59 +/- 2.65 %)
Type: functional
Details: route intragastric
Value Kind: Activity (%)
Answer format: numeric, % implied, no suffix.

Below, each entry is followed by its recorded Activity result.
Molecule	Unit	Activity
O=c1cc(-c2ccccc2)oc2cc(O)cc(O)c12	%	-9.42
COc1ccc(Cl)cc1C(=O)NCCc1ccc(S(=O)(=O)NC(=O)NC2CCCCC2)cc1 [GLYBURIDE]	%	-23.77
O=c1c(O)c(-c2ccccc2)oc2ccccc12	%	-10.05
O=c1cc(-c2ccccc2)oc2cc(O)ccc12 [7-HYDROXYFLAVONE]	%	-4.81

Provide value of Activity for this record tested with Rattus norvegicus: O=c1cc(-c2ccccc2)oc2ccccc12
-11.65

Then what about the molecule O=c1cc(-c2ccccc2)oc2ccc(O)cc12 [6-HYDROXYFLAVONE] ?
-0.93

Then what about the molecule O=c1c(O)c(-c2ccc(O)c(O)c2)oc2cc(O)cc(O)c12 ?
-17.85
